Reported % photobleaching of fluorescence values are given for each entry in this list.
TEST_DETAILS: Photo-stability test (photobleaching under 250 W blue light)
Type: physicochemical
MEASUREMENT_CONDITIONS: DMSO, 250 W blue light (380–500 nm), after 30 min irradiation
Quick reminder: number only, in %, skip the unit.

COc1ccc(C(=O)/C=C/c2ccc(N(C)C)cc2)cc1 [3a]    25
CN(C)c1ccc(/C=C/C(=O)c2cccs2)cc1 [3b]    43
CN(C)c1ccc(/C=C/C(=O)c2ccc(N)cc2)cc1 [3f]    47
CN(C)c1ccc(/C=C/C(=O)c2ccc(N(C)C)cc2)cc1 [3d]    30
Cc1ccc(C(=O)/C=C/c2ccc(N(C)C)cc2)cc1 [3e]    21

Consider the record given below.
Form field: reported % photobleaching of fluorescence of CN(C)c1ccc(/C=C/C(=O)c2ccc(O)cc2)cc1 [3c]
50

Data provenance is paper PMC8156934.
